growth inhibition: recorded values
TEST_NAME: NCI Yeast Anticancer Drug Screen. Data for the cln2 rad14 strain (AID 165);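 note: 0% = growth equal to vehicle treated cultures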
EXPERIMENTAL_SETUP: S. cerevisiae cln2 rad14 strain, at 50.0 µM, hits give high values
This is part of a sample that, as a whole, favours compounds with a hit. Of some 79,000 tested, about 15% had one in any assay.
Provide the reading as a plain figure in %.

See these solved cases before continuing.
CN(C)c1ccc(C=Nc2cc(Cl)ccc2O)cc1 ... -2.9
O=c1oc2ccccc2c(O)c1[N+](=O)[O-] ... 2.7
Cc1cc(NC(=O)C(=O)Cc2cnc3ccccc3n2)c(S(=O)(=O)O)cc1Cl ... -23
CCCCCCCC/C=C/CCCCCCCCCCCC(=O)O ... -46.5
COc1cc(NCCNCC(C)(C)C)c2ncccc2c1 ... 11.8
C[N+]1(CCC(/C=C/c2ccc([N+](=O)[O-])cc2)=N\O)CCOCC1 ... -6.55

Notebook: C#CCOC(=O)c1ccc(C(=O)OCC#C)cc1 , growth inhibition read as 8.35

Notebook: CC(=O)N=C1N(/C=C2\C(=O)Oc3ccccc3C2=O)C(=O)/C(=C/c2ccc(OC(C)=O)cc2)N1C , growth inhibition read as 12.9

Notebook: C(=N/OC(c1ccccc1)(c1ccccc1)c1ccccc1)/c1ccccc1 , growth inhibition read as 7.8

Notebook: O=c1c2ccccc2nc(-c2ccccc2Cl)n1NCC1(O)OCC(O)C(O)C1O (stereo not drawn) , growth inhibition read as -13.2

Notebook: O=c1c2c(sc3ccccc13)CCC2 , growth inhibition read as 46.9

Notebook: Cc1ccc(C)c(CNC(=O)Nc2ccccc2Cl)c1 , growth inhibition read as 6.75

Notebook: O=C(/C=C/c1ccc(Cl)cc1)c1cc(Cl)ccc1O , growth inhibition read as -27.8

Notebook: Cc1ccc(Cc2ccc(CCc3ccc(Cc4ccc(C)cc4)cc3)cc2)cc1 , growth inhibition read as 32.4

Notebook: CC(O)(C(=O)O)c1ccccc1O (stereo not drawn) , growth inhibition read as 3.3

Notebook: C=C(C)COc1ccc(/C=C/C(=O)OCC)cc1 , growth inhibition read as 1.2

Notebook: Oc1c(/N=N/C(=S)NCCCN2CCN(CCCNC(=S)/N=N/c3[nH]c4ccccc4c3O)CC2)[nH]c2ccccc12 , growth inhibition read as -2.7

Notebook: C#[N+]CCOP(=O)(OCC1OC(n2cc(C)c(=O)[nH]c2=O)CC1N=[N+]=[N-])O[C@H]1CC[C@@]2(C)C(=CC[C@H]3[C@@H]4CC[C@H](C(C)CCCC(C)C)[C@@]4(C)CC[C@@H]32)C1 (stereo partly drawn) , growth inhibition read as 3.05

Notebook: CCOC(=O)C1C2CCCC(=O)C21 (stereo not drawn) , growth inhibition read as -56.8

Notebook: CCCCCCc1ccccn1 , growth inhibition read as -1.6

Notebook: COc1ccc2nccc(C(=O)CCC3CCN(C(=O)c4ccc([N+](=O)[O-])cc4)CC3C(CBr)CCBr)c2c1 (stereo not drawn) , growth inhibition read as -1.85

Notebook: CSc1nc(Cl)nc2c1nc(SC)n2-c1ccccc1 , growth inhibition read as -8.95

Notebook: CCCCCCCCCCCCc1c2ccccc2cc2ccccc12 , growth inhibition read as -11.4

---

TEST_NAME: NCI Yeast Anticancer Drug Screen. Data for the mec2-1 strain (AID 157)
EXPERIMENTAL_SETUP: S. cerevisiae mec2-1 strain, at 50.0 µM, hits give high values
The panel holds about 79,000 compounds, 15% with a hit somewhere; the sample as a whole holds those more often.
Use t when the recorded growth inhibition is no lower than -10%; use f when it is lower.

Solved cases (3 shown):
CC(=N/Nc1ccc([N+](=O)[O-])cc1[N+](=O)[O-])/C(C)=C/C1C=CCCC1(C)C (stereo not given) ... t
CC(=O)C1CCC2C3C=C(C)C4=CC(=O)CCC4(C)C3(F)C(=O)CC12C (stereo not given) ... f
O=C1C(O)=C(Br)C(=O)C(O)=C1Br ... f

Would you kindly look at the next entry?
Answer whether growth inhibition of CC1=CC2N(C=C1)C(c1cccc([N+](=O)[O-])c1)=NON2c1cc(C)ccn1 (stereo not given) is greater than or equal to -10%.
t
